B1: LINE1-full (parent)
chain: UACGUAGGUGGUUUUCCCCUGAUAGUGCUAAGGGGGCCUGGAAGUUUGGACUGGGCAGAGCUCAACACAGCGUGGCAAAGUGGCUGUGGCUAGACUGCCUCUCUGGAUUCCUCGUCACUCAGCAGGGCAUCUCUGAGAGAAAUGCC

- Variants of: B1
- measurement-notes: self-cleavage, relative activity (ratio to wild type); higher = more cleavage; in vitro, sequencing; the parent is a self-cleaving ribozyme
self-cleavage: recorded values
measured-parameter: self-cleavage

[
  {
    "mutant-name": "U104C U132C",
    "measured-parameter": "self-cleavage",
    "observed-measurement": 1.63
  },
  {
    "mutant-name": "U1C A78C",
    "measured-parameter": "self-cleavage",
    "observed-measurement": 1.46
  },
  {
    "mutant-name": "U52C A59U",
    "measured-parameter": "self-cleavage",
    "observed-measurement": 0.72
  },
  {
    "mutant-name": "U20A G137U",
    "measured-parameter": "self-cleavage",
    "observed-measurement": 0.85
  },
  {
    "mutant-name": "U1C A124U",
    "measured-parameter": "self-cleavage",
    "observed-measurement": 1.07
  },
  {
    "mutant-name": "U20C U130A",
    "measured-parameter": "self-cleavage",
    "observed-measurement": 1.65
  },
  {
    "mutant-name": "G74A U143A",
    "measured-parameter": "self-cleavage",
    "observed-measurement": 1.72
  },
  {
    "mutant-name": "U85A C98A",
    "measured-parameter": "self-cleavage",
    "observed-measurement": 0.07
  },
  {
    "mutant-name": "U9G C56U",
    "measured-parameter": "self-cleavage",
    "observed-measurement": 0.24
  },
  {
    "mutant-name": "A69G A141G",
    "measured-parameter": "self-cleavage",
    "observed-measurement": 0.44
  },
  {
    "mutant-name": "A24G C128A",
    "measured-parameter": "self-cleavage",
    "observed-measurement": 0.65
  },
  {
    "mutant-name": "A30G A140G",
    "measured-parameter": "self-cleavage",
    "observed-measurement": 0.99
  },
  {
    "mutant-name": "C116U A121G",
    "measured-parameter": "self-cleavage",
    "observed-measurement": 1.57
  },
  {
    "mutant-name": "U96G G137A",
    "measured-parameter": "self-cleavage",
    "observed-measurement": 0.08
  },
  {
    "mutant-name": "U26G U130A",
    "measured-parameter": "self-cleavage",
    "observed-measurement": 0.79
  },
  {
    "mutant-name": "U20A U39A",
    "measured-parameter": "self-cleavage",
    "observed-measurement": 0.84
  },
  {
    "mutant-name": "U20C A42G",
    "measured-parameter": "self-cleavage",
    "observed-measurement": 1.25
  },
  {
    "mutant-name": "C56A U96C",
    "measured-parameter": "self-cleavage",
    "observed-measurement": 0.05
  },
  {
    "mutant-name": "A24U G35U",
    "measured-parameter": "self-cleavage",
    "observed-measurement": 0.67
  },
  {
    "mutant-name": "A67G A129G",
    "measured-parameter": "self-cleavage",
    "observed-measurement": 0.45
  },
  {
    "mutant-name": "U96A C118A",
    "measured-parameter": "self-cleavage",
    "observed-measurement": 0.02
  },
  {
    "mutant-name": "U26A A136U",
    "measured-parameter": "self-cleavage",
    "observed-measurement": 1.2
  }
]
